Measured melting point by item

Use the examples below as a reference point.
compound	measuredResult
COc1ccc(NC(=O)C(Cl)Cl)cn1	104 to 107 °C
O=C(NC(Cc1c[nH]c2ccccc12)C(=O)O)C(S)Cc1ccccc1 (centres undefined)	117 to 119 °C
Cc1cc(C=O)cc(C=O)c1OCCCC(c1ccc(F)cc1)c1ccc(F)cc1	97 °C
Cc1ccc(-n2nc(C(C)(C)C)cc2NC(=O)NCc2ccccc2Oc2cc(N3CCOCC3)ncn2)cc1	128 °C
Cc1cc(C(F)(F)F)n2nc(S(=O)(=O)Nc3c(Cl)cccc3Cl)nc2n1	237 to 239 °C
COc1c(C2CCN(CCCCNC(=O)c3ccc(-c4ccc(Cl)cc4)cn3)CC2)ccc2c1CCCC2	103 to 105 °C

Exam item: State its melting point for this compound: "CCOC(=O)CN(CCc1ccccc1)C(=O)[C@@H]1C[C@@H](SC(C)=O)CN1S(=O)(=O)c1ccc2ccccc2c1"
Marked response: 119 to 120 °C

Exam item: State its melting point for this compound: "Nc1nc2c(c(Nc3ccc(Br)cc3)n1)-c1ccccc1C2"
Marked response: 214 to 215 °C

Exam item: State its melting point for this compound: COc1ccc2c(=O)c(-c3ccc(OCC(O)CNC4CCCCC4)cc3)coc2c1 (centres undefined)
Marked response: 125 to 126 °C

###

Measured melting point by item

Use the examples below as a reference point.
molecule	quantityKind	measuredResult
COc1c(N2CC3CCC(N)C3C2)c(F)cc2c(=O)n(N)c(=O)n(C3CC3)c12 (centres undefined)	melting point	250 to 252 °C
COc1ccccc1N1CCN(CCn2cnc3sc4c(c3c2=O)CCNC4)CC1	melting point	168 to 170 °C
COC=C(C(=O)OC)c1cccc([N+](=O)[O-])c1	melting point	101 to 103 °C
O=c1c(Br)c(Br)cnn1-c1cccc(C(F)(F)F)c1	melting point	158 to 175 °C
NS(=O)(=O)c1ccc(C2=C(c3ccc(F)cc3)CCC2)cc1	melting point	173 to 174 °C

Exam item: State its melting point for this molecule: "CC(C)(C)NCC(=O)NCCn1ccc2ncnc(Nc3ccc(Oc4cccc5sncc45)c(Cl)c3)c21"
Marked response: 178 to 180 °C

Exam item: State its melting point for this molecule: "COc1ccc(Cl)cc1C(=O)NCCc1ccc(-c2ccc(S(C)(=O)=O)cc2)c(S(N)(=O)=O)c1"
Marked response: 114 °C

###

Measured melting point by item

Use the examples below as a reference point.
compound	measuredResult
CN1C(=O)C2(COc3cc4c(cc32)OCCO4)c2c(NC(=O)C(C)(C)C)cccc21 (stereo not given)	182 to 184 °C
O=C(N1CCN(c2nc(N3CC=CC3)nc(N3CC=CC3)n2)CC1)n1ccnc1	160 to 162 °C
CC(C)COC(=O)Nc1cc(F)cc(F)c1	71 to 74 °C
Cc1cc(F)ccc1-c1nc(OCC(CO)CO)nc2c1ccc(=O)n2-c1c(F)cccc1F	77 to 81 °C

Please examine the following record next.
Exam item: State its melting point for this compound: "Cc1ccc2c(c1)CC(=O)c1cc(F)ccc1S2"
Marked response: 103 to 104 °C

###

Measured melting point by item

Exam item: State its melting point for this compound: "COc1ccc(CSCCNC(=O)c2c(Cl)cccc2Cl)cc1"
Marked response: 80 to 81 °C

Exam item: State its melting point for this compound: CC1=CC(C)(C)Cc2c1nc(C(C)C)c(C(C)O)c2-c1ccc(F)cc1 (stereo not given)
Marked response: 117 to 119 °C

Exam item: State its melting point for this compound: "COC(=O)c1cc(SC#N)c(N)cc1OC"
Marked response: 184 to 185 °C

Exam item: State its melting point for this compound: "CNC(=O)Nc1snc(S(C)(=O)=O)c1C#N"
Marked response: 275 °C

Exam item: State its melting point for this compound: CC(c1cccc(-c2c[nH]nn2)c1)C(O)(Cn1cncn1)c1ccc(F)cc1F (stereo not given)
Marked response: 168 to 170 °C

Exam item: State its melting point for this compound: C1CCC2NC3NC4CCCCC4NC3NC2C1 (stereo not given)
Marked response: 148 to 155 °C

###

Measured melting point by item

molecule	measuredResult
CC(=O)SCC(C)C(=O)N(CC(=O)O)C1Cc2ccccc2C1 (centres undefined)	81 to 83 °C

Exam item: State its melting point for this molecule: "COc1cc2c3c(c1)c(=O)c(Cc1cccnc1)cn3-c1ccc(Br)cc1S2"
Marked response: 157 to 159 °C

Exam item: State its melting point for this molecule: "CCOC(=O)c1ccccc1NCC(=O)N(C)c1ccccc1"
Marked response: 100 °C

Exam item: State its melting point for this molecule: "COc1cccc(Oc2ccc(C(=O)O)cc2C(=O)O)c1"
Marked response: 232 to 234 °C

###

quantityKind: melting point

molecule	measuredResult
CC(C)(C)OC(=O)N(O)C(=O)CCN	85 to 87 °C

Exam item: State its melting point for this molecule: "CCC(CC)N(C)Cc1ccc(NC(=O)C2=Cc3cc(-c4ccc(C)cc4)ccc3SCC2)cc1"
Marked response: 136 to 137 °C

Exam item: State its melting point for this molecule: "Cc1c(NC(=O)c2ccc(OCc3ccc(F)cc3)cc2)ccc2cc(CN3CCCCC3)cnc12"
Marked response: 159 to 160 °C

Exam item: State its melting point for this molecule: "CCSc1scnc1C(=O)O"
Marked response: 158 to 159 °C

###

Measured melting point by item

compound	quantityKind	measuredResult
COc1ccc(-c2ccc(NC(=O)OC(C)(C)C)c([N+](=O)[O-])c2)cc1	melting point	107 to 109 °C
Fc1cc(Cl)cnc1Cl	melting point	38 to 39 °C
CNC(=O)c1ccc(Nc2nc(Nc3cc4c(cc3OC)CCN(Cc3ncco3)CC4)ncc2Cl)c(OC)c1	melting point	85 to 96 °C
CN1C(=S)C(NC(=O)CCC2CCCCC2)N=C(c2ccccc2)c2ccccc21 (stereo not given)	melting point	219 to 221 °C

Exam item: State its melting point for this compound: "OCCn1cc(-c2ccc3nnn(Cc4c(F)ccc(F)c4Cl)c3n2)cn1"
Marked response: 143 to 145 °C

###

Measured melting point by item

Use the examples below as a reference point.
compound	measuredResult
CCOC(=O)c1ccc(-c2cnc3c(c2)N(Cc2c(Cl)cccc2Cl)C(=O)CN3)cc1	226 °C
CCCCCCCCCCOc1cnc(-c2ccccc2C#CCC(C)O)nc1 (single isomer, unassigned; (-))	71 to 72 °C
O=c1[nH]c2cc(Cl)cc(Cl)c2c(=O)n1Cc1ccncc1	354 to 364 °C

Exam item: State its melting point for this compound: "O=C(CNCc1ccc(OCc2ccccc2)cc1)NCCCOc1ccccc1"
Marked response: 55 to 56 °C

Exam item: State its melting point for this compound: "COC(=O)c1ccccc1NC(=S)c1ccc(OC)nc1"
Marked response: 133 to 140 °C

Exam item: State its melting point for this compound: "CON(C)C(=O)c1cc(-n2c(=O)cc(C(F)(F)F)[nH]c2=O)c(F)cc1Cl"
Marked response: > 220 °C

###

Measured melting point by item

molecule	melting point
CC(C)C1=NC(NC(=O)CCc2ccc(Cl)cc2Cl)C(=O)N(C)c2ccccc21 (configuration not stated)	173 to 174 °C

Exam item: State its melting point for this molecule: "O=C(/C=C/c1ccc(Br)cc1)/C=C/c1ccc(Br)cc1"
Marked response: 211 to 213 °C

###

Measured melting point by item

compound	melting point
CS(=O)c1cc(=O)c2ccc(N3CCOCC3)cc2s1 (stereo not given)	198 to 200 °C

Exam item: State its melting point for this compound: "O=C(O)c1cccc(S(=O)(=O)CCO)c1[N+](=O)[O-]"
Marked response: 178 to 181 °C

Exam item: State its melting point for this compound: "COc1ccccc1-c1cc2c(c(Br)cn2C)c2c1C(=O)NC2=O"
Marked response: 216 to 220 °C

Exam item: State its melting point for this compound: "CC(C)Oc1nc(N)nc2c1ncn2CCC(CO)CO"
Marked response: 112 to 114 °C

###

quantityKind: melting point

Use the examples below as a reference point.
compound	melting point
O=C1c2c(-c3ccccc3)ccnc2OCCN1Cc1cc(C(F)(F)F)cc(C(F)(F)F)c1	200 to 201 °C
[N-]=[N+]=Nc1c(F)c(F)c(C(=O)O)c(F)c1F	140 to 141 °C
NCCCNC(=O)c1cccc(Nc2nccc(-c3ccnc(NCCCO)c3)n2)c1	169 to 170 °C

Exam item: State its melting point for this compound: "CCOC(=O)c1ccc(-n2nc(-c3ccccc3O)nc2-c2ccccc2O)cc1"
Marked response: 148 to 149 °C

Exam item: State its melting point for this compound: "Cn1c(=O)n(Cc2ccc3c(c2)OCO3)c(=O)c2cc(C(=O)NCc3ccc4c(c3)OCO4)ccc21"
Marked response: 198 °C

Exam item: State its melting point for this compound: OC(CBr)C(O)C(O)C(O)CBr (stereo not given)
Marked response: 183 to 185 °C

FYI, the data here is from a melting point compilation (Tetko et al.; mined from patent text by program, amines drawn as free bases though some values may be those of a salt).
